Consider the following molecules; for each one, report its growth.
# Test system: SK-MEL-2 melanoma
# Test Summary: NCI-60 one-dose screen, 48 h (100 = growth as untreated, 0 = no growth, -100 = all killed)
# Condition Description: 10 µM unless noted
The panel holds about 83,000 compounds, 20% with a hit somewhere; the sample as a whole holds those more often. *1 amine or outer side, *2 acyl side, *3 side chain or, on linkers, in order; H or OH if unused. Where a SMILES comes first, the peptide text is derived from it. [ ]: non-standard residue; d: D form. The star is where a group is joined. X5 = CCC(=O)CC1CC(C)CC(C(=O)[*:2])N1[*:1]; X4 = CCCCCCCCC(C)C(=O)*; Aib = CC(C)(N)C(=O)O; X6 = CC(CN(C)CCO)N*
Write it as a number; the unit % goes unstated.

Query string: Find the measured growth of "Cc1ccccc1NC(=O)Cc1csc2[n+]1C(=O)/C(=C/c1ccc([N+](=O)[O-])cc1)S2" and report it.
Result string: 108

Query string: Find the measured growth of "O=C(c1ccccc1)c1ccc(O)c2ncccc12" and report it.
Result string: 43

Query string: Find the measured growth of CCCCCCCCC(C)C(=O)N1CCCC1C(=O)N1C(CC(=O)CC)CC(C)CC1C(=O)NC(C)C(=O)NC(C)(C)C(=O)NC(C)(C)C(=O)NC(C(=O)NC(C)C(=O)NC(C)(C)C(=O)NC(C)(C)C(=O)NC(C)CN(C)CCO)C(C)CC (stereo unspecified) (X4-P[X5]A[Aib][Aib]IA[Aib][Aib]-X6; configuration not given here) and report it.
Result string: -34

Query string: Find the measured growth of "O=C(Nc1ccc(Cl)c(Cl)c1)Nc1ccccc1O" and report it.
Result string: 77

Query string: Find the measured growth of COc1ccc(C(Cn2ccnc2)Sc2ccc(Cl)c(Cl)c2)cc1 (stereo unspecified) and report it.
Result string: 104

Query string: Find the measured growth of "CN(C)c1ccc2cc3c(cc2c1)Oc1ccccc1N3.[Cl][Zn][Cl]" and report it.
Result string: 89.5

* * *

Consider the following compounds; for each one, report its growth.
# Test system: UACC-62 melanoma
# Test Summary: NCI-60 one-dose screen, 48 h (100 = growth as untreated, 0 = no growth, -100 = all killed)
# Condition Description: 10 µM unless noted
Compounds without any hit were thinned out: in the full panel of roughly 83,000, 20% have a hit.
Write it as a number; the unit % goes unstated.

Query string: Find the measured growth of "CN=C(N)N/N=C(\c1ccccc1)c1ccc(Br)cc1" and report it.
Result string: 33.8

Query string: Find the measured growth of "CC/C(=C(/CC)c1ccc(O)cc1)c1ccc(O)cc1" and report it.
Result string: 42.4

Query string: Find the measured growth of "Cc1cc(I)nc2ccccc12" and report it.
Result string: 117

Query string: Find the measured growth of "Cn1ccc(=Nc2ccc(NC(=O)c3ccc(N=c4ccn(C)c5ccc([N+](=O)[O-])cc45)cc3)cc2)cc1" and report it.
Result string: 70.1

Query string: Find the measured growth of "CSc1nc(C)c(C(=O)CCN2CCN(c3ccccn3)CC2)s1" and report it.
Result string: 98.7

Query string: Find the measured growth of CCCCCCCCCCCCCCCCCC[S+](C)CC (stereo not drawn) and report it.
Result string: 19.3

Query string: Find the measured growth of CN(C)CCSC1=Nc2ccc(Cl)cc2C(c2ccccc2Cl)N(C)C1 (stereo not drawn) and report it.
Result string: 29.2

Query string: Find the measured growth of "CN1CSC(=S)N(Cc2ccccc2)C1" and report it.
Result string: 85.8

Query string: Find the measured growth of "Cc1oc2c(C)c3oc(=O)cc(C)c3cc2c1CCl" and report it.
Result string: 44.3

Query string: Find the measured growth of Nc1nc2ncc(CNc3ccc(C(=O)NC(CCC(=O)NC(CCC(=O)NC(CCC(=O)NC(CCC(=O)NC(CCC(=O)O)C(=O)O)C(=O)O)C(=O)O)C(=O)O)C(=O)O)cc3)nc2c(=O)[nH]1 (stereo not drawn) and report it.
Result string: 94.5

Query string: Find the measured growth of "CC1(O)CCCCCC1" and report it.
Result string: 100

Query string: Find the measured growth of "CCCCCCCCCCCC[n+]1ccc(CCCCCCCCC)cc1" and report it.
Result string: -76.9

Query string: Find the measured growth of "Cc1cc(C(=C2C=CC(=Nc3ccccc3)C=C2)c2ccc(Nc3ccccc3)cc2)ccc1N" and report it.
Result string: -65.6

Query string: Find the measured growth of "O=C(/C=C/c1ccccc1)c1ccccc1O" and report it.
Result string: 85.8

Query string: Find the measured growth of OC(c1cc(C23CC4CC(CC(C4)C2)C3)nc2c(Cl)cc(Cl)cc12)C1CCCCN1 (stereo not drawn) and report it.
Result string: -44.1

Query string: Find the measured growth of "Cc1ccc2cccc(OC(=O)Nc3cccc(C(F)(F)F)c3)c2n1" and report it.
Result string: 60.8

Query string: Find the measured growth of "Cc1c(O)ccc(SC#N)c1C" and report it.
Result string: 94.6

Query string: Find the measured growth of "CCOc1cc(F)c([N+](=O)[O-])cc1[N+](=O)[O-]" and report it.
Result string: 78.2

Query string: Find the measured growth of "O=C(CBr)c1ccc(OC(=O)c2ccccc2)cc1" and report it.
Result string: 107

Query string: Find the measured growth of CC1CC(C)(C)OB(OC(C)CC(C)(C)OB2OC(C)CC(C)(C)O2)O1 (stereo not drawn) and report it.
Result string: 106

Query string: Find the measured growth of "Cc1ccc(Nc2ccc(O)c3c2C(=O)c2c(O)ccc(Nc4ccc(C)cc4)c2C3=O)cc1" and report it.
Result string: 105

Query string: Find the measured growth of "CCCCCCCCCCCCCCCc1ccc(C(=O)C[n+]2ccccc2)cc1" and report it.
Result string: -27.6

Query string: Find the measured growth of "CN(C)CC(C)(CN(C)C)C(=O)/C=C/c1c(Cl)cccc1Cl" and report it.
Result string: 20.1
